tested on: chicken gizzard smooth muscle myosin subfragment-1 chemically crosslinked to cardiac or skeletal actin (Gallus gallus, UniProt P10587)
pIC50: −log10 of the molar value.
reported metric: pIC50

a. N#Cc1ccccc1-c1ccc(C(=O)NC[C@H]2CNCC(=O)N2)c(NCCc2cccc(F)c2)n1
b. CN(CCNC(=O)c1ccc(-c2ccccc2C#N)nc1NCCc1cccc(F)c1)C(=O)CCN
Query: Recorded pIC50 values differ for a and b ; which one is higher? Could you answer with the label of the item you picked?
Reply: a
(a: 6.81, b: 5.75)

I. Cc1cc(C(=O)NC[C@H]2CCCN2C(=O)CCCNC(=O)OC(C)(C)C)c(NCCc2cccc(F)c2)nc1-c1cnn(C)c1
II. N#Cc1ccccc1-c1ccc(C(=O)NC[C@@H]2CCCN(C(=O)CCN)C2)c(NCCc2cccc(F)c2)n1
Query: Record comparison, field pIC50: mark the lower of I and II . Could you answer with the label of the item you picked?
Reply: I

I. Cn1cc(-c2ccc(C(=O)NC[C@H]3CCCN3C(=O)OC(C)(C)C)c(NCCc3cccc(F)c3)n2)cn1
II. NCC(=O)N1CC[C@@H]1CNC(=O)c1ccc(-c2cn[nH]c2)nc1NCCc1cccc(F)c1
III. O=C(NCc1cccnc1)c1ccc(-c2cnn(CCO)c2)nc1NCCc1cccc(F)c1
IV. CN1CC(=O)N[C@@H](CNC(=O)c2ccc(-c3ccccc3C#N)nc2NCCc2cccc(F)c2)C1 (stereo in doubt)
V. N#Cc1ccccc1-c1ccc(C(=O)NC[C@H]2CCN2C(=O)[C@@H](N)CO)c(NCCc2cccc(F)c2)n1
Query: Arrange these 5 compounds in increasing order of pIC50. Form field (ranking): labels in requested order.
Reply: I, III, II, V, IV
(I: 5.33, III: 6.01, II: 6.25, V: 7.06, IV: 7.43)

a. COC(=O)CCC(=O)N1CCC[C@@H]1CNC(=O)c1ccc(-c2ccccc2C#N)nc1NCCc1cccc(F)c1
b. Cn1cc(-c2ccc(C(=O)NCC3CNCC(=O)N3)c(NCCc3cccc(F)c3)n2)cn1 (centres unmarked)
Query: Recorded pIC50 values differ for a and b ; which one is higher? Could you answer with the label of the item you picked?
Reply: a

a. COCc1ccccc1-c1ccc(C(=O)NCc2cccnc2)c(NCCc2ccccn2)n1
b. N#Cc1cc(C(=O)NC[C@H]2CCC(=O)N2CCCN)c(NCCc2cccc(F)c2)nc1-c1cn[nH]c1
c. C[C@H](NC(=O)OC(C)(C)C)C(=O)N1CCC[C@@H]1CNC(=O)c1ccc(-c2ccccc2C#N)nc1NCCc1cccc(F)c1
d. N#Cc1ccccc1-c1ccc(C(=O)NC[C@H]2CNCC(=O)N2CCCN)c(NCCc2cccc(F)c2)n1
Query: Arrange these 4 compounds in increasing order of pIC50. Form field (ranking): labels in requested order.
Reply: a, c, b, d

A. O=C(NC[C@H]1CCCN1C(=O)CCCO)c1ccc(-c2cn[nH]c2)nc1NCCc1cccc(F)c1
B. CC(=O)N[C@@H](CNC(=O)c1ccc(-c2ccccc2C#N)nc1NCCc1cccc(F)c1)C(N)=O
Query: Recorded pIC50 values differ for A and B ; which one is higher? Could you answer with the label of the item you picked?
Reply: A
(A: 6.02, B: 5.58)

====

tested on: chicken gizzard smooth muscle myosin subfragment-1 chemically crosslinked to cardiac or skeletal actin (Gallus gallus, UniProt P10587)
pIC50: −log10 of the molar value.
reported metric: pIC50

A selection of reference data follows.
| molecular string | pIC50 |
| --- | --- |
| CN1CCC[C@@H]1CNC(=O)c1ccc(-c2ccccc2C#N)nc1NCCc1cccc(F)c1 | 6.67 |
| O=C(NCCc1ccccn1)c1ccc(-c2ccccc2)nc1NCCc1ccccc1 | 5.28 |
| N#Cc1ccccc1-c1ccc(C(=O)NC[C@H]2CCCN2C(=O)OCCN)c(NCCc2cccc(F)c2)n1 | 7.57 |
| CC(C)(C)OC(=O)NCC(=O)N1CCC[C@@H]1CNC(=O)c1cc(F)c(-c2ccccc2C#N)nc1NCCc1cccc(F)c1 | 5.56 |
| N#Cc1ccccc1-c1ccc(C(=O)NC[C@@H]2CCCN(C(=O)CN)C2)c(NCCc2cccc(F)c2)n1 | 6.12 |
| CN(CCNC(=O)CNC(=O)c1ccc(-c2ccccc2C#N)nc1NCCc1cccc(F)c1)C(=O)OC(C)(C)C | 4.18 |
| C[C@H](CNC(=O)c1ccc(-c2ccccc2C#N)nc1NCCc1cccc(F)c1)N(C)C(=O)CCCNC(=O)OC(C)(C)C | 5.43 |
| CC(C)(C)OC(=O)NCCCC(=O)N1CCC[C@@H]1CNC(=O)c1ccc(-c2ccccc2C#N)nc1NCCc1cccc(F)c1 | 6.36 |
| O=C(NCc1cccnc1)c1ccc(-c2ccccc2)nc1NCCOc1ccccc1 | 4.70 |
| N#Cc1ccccc1-c1ccc(C(=O)NC[C@H]2CCCN2CCN)c(NCCc2cccc(F)c2)n1 | 6.15 |

I. O=C(NCc1cccnc1)c1ccc(-c2cc(F)ccc2Cl)nc1NCCc1cccc(F)c1
II. CC(C)(C)OC(=O)N1CC[C@@H]1CNC(=O)c1ccc(-c2cn[nH]c2)nc1NCCc1cccc(F)c1
Query: Recorded pIC50 values differ for I and II ; which one is higher? Could you answer with the label of the item you picked?
Reply: II
(II: 6.28, I: 5.88)

I. NCc1ncccc1CNC(=O)c1ccc(-c2cn[nH]c2)nc1NCCc1cccc(F)c1
II. C[C@H](CNC(=O)c1cc(F)c(-c2cnn(C)c2)nc1NCCc1cccc(F)c1)NC(=O)CNC(=O)OC(C)(C)C
III. CNC(=O)[C@H](C)NC(=O)c1ccc(-c2ccccc2C#N)nc1NCCc1cccc(F)c1
IV. CNC(=O)CCCNC(=O)c1ccc(-c2ccccc2C#N)nc1NCCc1cccc(F)c1
Query: Arrange these 4 compounds in increasing order of pIC50. Form field (ranking): labels in requested order.
Reply: IV, II, III, I

P. N#Cc1ccccc1-c1nc(NCCc2cccc(F)c2)c(C(=O)NCc2cccnc2)cc1Br
Q. O=C(NCc1cccnc1)c1ccc(-c2ccccc2)nc1NCCC1=CCCCC1
Query: Record comparison, field pIC50: mark the lower of P and Q . Could you answer with the label of the item you picked?
Reply: P

====

tested on: chicken gizzard smooth muscle myosin subfragment-1 chemically crosslinked to cardiac or skeletal actin (Gallus gallus, UniProt P10587)
pIC50: −log10 of the molar value.
reported metric: pIC50

A selection of reference data follows.
| compound | pIC50 |
| --- | --- |
| N#Cc1ccccc1-c1ccc(C(=O)NC[C@@H]2CCCCN2C(=O)CCN)c(NCCc2cccc(F)c2)n1 | 6.96 |
| O=Cc1cc(-c2ccc(C(=O)NCc3cccnc3)c(NCCc3cccc(F)c3)n2)cs1 | 7.01 |
| COC(=O)[C@@H](CO)NC(=O)c1ccc(-c2ccccc2C#N)nc1NCCc1cccc(F)c1 | 6.29 |
| N#Cc1ccccc1-c1ccc(C(=O)NCCNCCN)c(NCCc2cccc(F)c2)n1 | 6.35 |
| N#Cc1ccccc1-c1ccc(C(=O)NC[C@@H]2CCCN2)c(NCCc2cccc(F)c2)n1 | 5.34 |

P. CNC(=O)CNC(=O)c1cc(F)c(-c2cn[nH]c2)nc1NCCc1cccc(F)c1
Q. O=C(NCc1cccnc1)c1ccc(-c2ccccc2)nc1NCCc1ccc(Cl)cc1
R. CS(=O)(=O)NCCNC(=O)c1ccc(-c2ccccc2C#N)nc1NCCc1cccc(F)c1
S. O=C(NCc1cccnc1)c1ccc(-c2ccc(CO)cc2)nc1NCCc1ccccn1
T. N#Cc1sccc1-c1ccc(C(=O)NCc2cccnc2)c(NCCc2cccc(F)c2)n1
Query: Arrange these 5 compounds in increasing order of pIC50. Form field (ranking): labels in requested order.
Reply: Q, S, R, P, T

A. N#Cc1ccccc1-c1ccc(C(=O)NC[C@H]2CCCNC2)c(NCCc2cccc(F)c2)n1
B. Cn1cc(-c2nc(NCCc3cccc(F)c3)c(C(=O)NC[C@H]3CCCN3)cc2F)cn1
Query: Record comparison, field pIC50: mark the lower of A and B . Could you answer with the label of the item you picked?
Reply: A
(A: 5.70, B: 6.56)

I. CC(C)(C)OC(=O)NCC(=O)N1CCC[C@@H]1CNC(=O)c1cc(F)c(-c2cn[nH]c2)nc1NCCc1cccc(F)c1
II. Cc1ccccc1-c1ccc(C(=O)NCc2cccnc2)c(NCCc2ccccn2)n1
Query: Recorded pIC50 values differ for I and II ; which one is higher? Could you answer with the label of the item you picked?
Reply: I

a. CN(C)c1ccc(CNC(=O)c2ccc(-c3ccccc3C#N)nc2NCCc2cccc(F)c2)cn1
b. C=CCNC(=O)c1ccc(-c2ccccc2)nc1NCCc1ccccc1
c. CC(C)(CNC(=O)c1ccc(-c2ccccc2C#N)nc1NCCc1cccc(F)c1)NC(=O)CNC(=O)OC(C)(C)C
d. Cn1cc(-c2nc(NCCc3cccc(F)c3)c(C(=O)NC[C@H]3CCCN3C(=O)C(O)CO)cc2F)cn1 (stereo partly drawn)
e. N#Cc1ccccc1-c1ccc(C(=O)NCc2cnccc2CN)c(NCCc2cccc(F)c2)n1
Query: Put the items in sequence by pIC50, from largest down. Form field (ranking): labels in requested order.
Reply: d, e, b, c, a

1. Cc1cc(C(=O)NC[C@H]2CCC(=O)N2CCCN)c(NCCc2cccc(F)c2)nc1-c1ccccc1C#N
2. O=C(NCC1CCNCC1)c1ccc(-c2ccccc2)nc1NCCc1ccccn1
Query: Recorded pIC50 values differ for 1 and 2 ; which one is higher? Could you answer with the label of the item you picked?
Reply: 1

I. CC(C)(C)OC(=O)N[C@@H](CO)C(=O)N1CCC[C@@H]1CNC(=O)c1cc(F)c(-c2cn[nH]c2)nc1NCCc1cccc(F)c1
II. N#Cc1ccccc1-c1ccc(C(=O)NCC(O)CN)c(NCCc2cccc(F)c2)n1 (stereo not drawn)
Query: Record comparison, field pIC50: mark the lower of I and II . Could you answer with the label of the item you picked?
Reply: II
(II: 5.32, I: 6.00)

1. N#Cc1ccccc1-c1ccc(C(=O)NC[C@H]2CCCN2S(=O)(=O)CCCN)c(NCCc2cccc(F)c2)n1
2. N#Cc1ccccc1-c1ccc(C(=O)NCC2CCNC2=O)c(NCCc2cccc(F)c2)n1 (stereo not drawn)
3. Cn1cc(-c2nc(NCCc3cccc(F)c3)c(C(=O)NCCCNC(=O)OC(C)(C)C)cc2F)cn1
4. COC(=O)N1CCC[C@H](CNC(=O)c2ccc(-c3ccccc3C#N)nc2NCCc2cccc(F)c2)C1
5. CS(=O)(=O)N1CCCC(CNC(=O)c2ccc(-c3ccccc3)nc2NCCc2ccccn2)C1 (stereo not drawn)
Query: Arrange these 5 compounds in increasing order of pIC50. Form field (ranking): labels in requested order.
Reply: 5, 3, 4, 1, 2

a. N#Cc1ccccc1-c1ccc(C(=O)N[C@H]2CCCNC2=O)c(NCCc2cccc(F)c2)n1
b. CNC(=O)N1CCC[C@@H]1CNC(=O)c1ccc(-c2ccccc2C#N)nc1NCCc1cccc(F)c1
Query: Recorded pIC50 values differ for a and b ; which one is higher? Could you answer with the label of the item you picked?
Reply: b

Numbers sourced from patent US7932270B2.
